# Test system: NOMO1
# method_description: cell viability relative to DMSO control; higher = less cytotoxic
# recorded_conditions: RPMI 5 mM glucose + 10% FBS; 48 h; 0.00702 µM
Listed below: cell viability values for each entry.

compound | study_target | cell viability [%]
c1cc(-c2cnn3cc(-c4ccc(OCCN5CCCCC5)cc4)cnc23)ccn1 | NOMO1 | 87.4
CC(=O)SC[C@@H](C)C(=O)N1CCC[C@H]1C(=O)N[C@@H](Cc1ccccc1)C(=O)O | NOMO1 | 105
Cc1c(N)nc([C@H](CC(N)=O)NC[C@@H](N)C(N)=O)nc1C(=O)N[C@H](C(=O)N[C@@H](C)[C@H](O)[C@@H](C)C(=O)N[C@@H](C(=O)NCCc1nc(-c2nc(C(=O)NCCC[S+](C)C)cs2)cs1)[C@@H](C)O)C(O[C@H]1O[C@H](CO)[C@H](O)[C@@H](O)[C@H]1O[C@H]1O[C@H](CO)[C@@H](O)[C@H](OC(N)=O)[C@@H]1O)c1c[nH]cn1 (some centres not stated) | NOMO1 | 95
O=C(O)c1cc(O)c2c(c1)C(=O)c1cccc(O)c1C2=O | NOMO1 | 116
CCCOc1ccc(C(=O)OCCN(CC)CC)cc1N | NOMO1 | 122
Cc1nc(-c2ccc(OCC(C)C)c(C#N)c2)sc1C(=O)O | NOMO1 | 119
COc1cc2c(cc1OC)[C@@H]1Cc3ccc(OC)c(OC)c3CN1CC2 | NOMO1 | 94.8
COc1ccc(F)c(F)c1C(=O)c1cnc(NC2CCN([S+](C)(=O)[O-])CC2)nc1N | NOMO1 | 103
C[C@@H]1CC[C@@]2(CC[C@]3(C)\C(=C/C[C@@H]4[C@@]5(C)CC[C@H](O)C(C)(C)[C@@H]5CC[C@@]34C)[C@@H]2[C@H]1C)C(O)=O | NOMO1 | 120
CCNC(=O)Nc1ccc(Oc2ncnc(N)c2/C=N/OC)cc1Cl | NOMO1 | 114
OC1=CC=C(C=C1)C/2=C/C3=C(OC2)C=C(O)C=C3 | NOMO1 | 117
CN1C(=O)/C(=C(NC2=CC=C(I)C=C2F)\C3=C1\N=C/N(C[C@@H](O)CO)C3=O)F | NOMO1 | 78.7
CC(C)(N)C(=O)N[C@H](COCc1ccccc1)C(=O)N1CCC2(CC1)CN([S+](C)(=O)[O-])c1ccccc12 | NOMO1 | 132
CC1(C)CC\C2=C(/O1)C3=C(C=CC=C3)C(=O)C2=O | NOMO1 | 115
COc1cc(C(=O)NC2CCN(C)CC2)ccc1Nc1ncc2c(n1)N(C1CCCC1)CCC(=O)N2C(C)C | NOMO1 | 101
CN(CCOc1ccc(CC2SC(=O)NC2=O)cc1)c1ccccn1 (configuration not stated) | NOMO1 | 121
O=C(O)CCCCCC(=O)NN=C1CCCC1 | NOMO1 | 111

* * *

# Tested on: P12-Ichikawa
# method_description: cell viability relative to DMSO control; higher = less cytotoxic
# recorded_conditions: HPLM + 10% dialyzed FBS; 48 h; 0.569 µM
For each record, check the reported cell viability: if it is below 90% write Condition met, else write Condition not met.

compound | study_target | label_class
OC[C@H]1O[C@H](C[C@@H]1O)N2/C=C(C(=O)NC2=O)/C(F)(F)F | P12-Ichikawa | Condition met
C[C@H](CCC(=O)O)[C@H]1CC[C@H]2[C@@H]3[C@H](O)C[C@@H]4C[C@H](O)CC[C@]4(C)[C@H]3CC[C@]12C | P12-Ichikawa | Condition not met
CCCCCNC(=N)N/N=C/c1c[nH]c2ccc(OC)cc12 | P12-Ichikawa | Condition not met
C[S+](=O)([O-])Oc1ccc2c(NC(N)=O)c(C(=O)c3ccc(Cl)cc3Cl)oc2c1 | P12-Ichikawa | Condition not met
CCN(CC)CCNC(=O)c1c(C)[nH]c(/C=C2\C(=O)Nc3ccc(F)cc32)c1C | P12-Ichikawa | Condition met
COc1ccc(CCC(=O)c2c(O)cc(O[C@@H]3O[C@H](CO)[C@@H](O)[C@H](O)[C@H]3O[C@@H]3O[C@@H](C)[C@H](O)[C@@H](O)[C@H]3O)cc2O)cc1O | P12-Ichikawa | Condition not met
C[C@]1(O)CC(C1)C2=NC(=C3[N]2C=CN=C3N)C4=CC5=C(C=C4)C=CC(=N5)C6=CC=CC=C6 (stereo not drawn) | P12-Ichikawa | Condition not met

* * *

# Tested on: NOMO1
# method_description: cell viability relative to DMSO control; higher = less cytotoxic
# recorded_conditions: RPMI 5 mM glucose + 10% FBS; 48 h; 46.1 µM

smiles_string | cell viability (%)
Nc1ccc(C(=O)Nc2cccc(-c3nc(N4CCOCC4)c4oc5ncccc5c4n3)c2)cn1 | 91
O=C(O)CCCCCC(=O)NN=C1CCCC1 | 129
CC(C)(N)C(=O)N[C@H](COCc1ccccc1)C(=O)N1CCC2(CC1)CN([S+](C)(=O)[O-])c1ccccc12 | 110
Cc1cc(Nc2cc(N3CCN(C)CC3)nc(/C=C/c3ccccc3)n2)n[nH]1 | 3.81
CNC(=O)c1ccc2c(c1)NC(=O)/C2=C(\Nc1cccc(CN(C)C)c1)c1ccccc1 | 1.26
O=C(c1cncc(Br)c1)N1CCC(N2CCCC2)CC1 | 84.4
OC1=CC=C(C=C1)C/2=C/C3=C(OC2)C=C(O)C=C3 | 9.27
C[S+](=O)([O-])Oc1ccc2c(NC(N)=O)c(C(=O)c3ccc(Cl)cc3Cl)oc2c1 | 50.3
COc1cc2c(cc1OC)[C@@H]1Cc3ccc(OC)c(OC)c3CN1CC2 | 34.3

* * *

Listed below: cell viability values for each entry.
# Tested on: P12-Ichikawa
# method_description: cell viability relative to DMSO control; higher = less cytotoxic
# recorded_conditions: RPMI 5 mM glucose + 10% dialyzed FBS; 48 h; 0.569 µM

smiles_string | cell viability, %
CNc1nc(-c2ccc3c(N)n[nH]c3c2)cc(N2C[C@@H](C(=O)NC3CCCCC3)CC[C@H]2C)n1 | 65.5
OC[C@H]1O[C@H](C[C@@H]1O)N2/C=C(C(=O)NC2=O)/C(F)(F)F | 89.6
NC(=O)c1cccc(-c2cc(Nc3ccc(OC(F)(F)F)cc3)ncn2)c1 | 96.1

* * *

# Tested on: SEM cells
# method_description: cell viability relative to DMSO control; higher = less cytotoxic
# recorded_conditions: HPLM + 10% dialyzed FBS; 48 h; 0.00702 µM
quantity: cell viability (%)

smiles_string | study_target | data_value
CN1C(=O)c2sccc2N(C)c2nc(Nc3ccc([S+](N)(=O)[O-])cc3)ncc21 | SEM cells | 103
COc1cc(C(=O)NC2CCN(C)CC2)ccc1Nc1ncc2c(n1)N(C1CCCC1)CCC(=O)N2C(C)C | SEM cells | 119
Nc1nc(F)nc2c1ncn2[C@@H]1O[C@H](COP(=O)(O)O)[C@@H](O)[C@@H]1O | SEM cells | 117

* * *

# System: P12-Ichikawa
# method_description: cell viability relative to DMSO control; higher = less cytotoxic
# recorded_conditions: HPLM + 10% dialyzed FBS; 48 h; 0.00702 µM
quantity: cell viability (%)

molecule | measure_unit | data_value
O=C(O)CCCCCC(=O)NN=C1CCCC1 | % | 99.4
C/C1=C2/[N]3[Co+]456([OH])<-[N]7=C1[C@@H](CCC(N)=O)C(C)(C)/C7=C/C1=[N]->4C(=C(/C)C4=[N]->5[C@@](C)([C@H]3[C@H](CC(N)=O)[C@@]2(C)CCC(=O)NC[C@@H](C)OP(=O)([O-])O[C@H]2[C@@H](O)[C@@H](n3c[n]->6c5cc(C)c(C)cc53)O[C@@H]2CO)[C@@](C)(CC(N)=O)[C@@H]4CCC(N)=O)/[C@@](C)(CC(N)=O)[C@@H]1CCC(N)=O | % | 95.9
COc1cc2c(cc1OC)[C@@H]1Cc3ccc(OC)c(OC)c3CN1CC2 | % | 114
O=C(/C=C/c1ccc(/C=C/C(=O)Nc2ccc(C3=NCCN3)cc2)cc1)Nc1ccc(C2=NCCN2)cc1 | % | 111
COc1c(Cl)cc2c([nH]c3cnccc32)c1NC(=O)c1cccnc1C | % | 102
NC1=NC(=O)N2CC12 (configuration not stated) | % | 101
CC1(C)CC\C2=C(/O1)C3=C(C=CC=C3)C(=O)C2=O | % | 114

* * *

# Tested on: P12-Ichikawa
# method_description: cell viability relative to DMSO control; higher = less cytotoxic
# recorded_conditions: RPMI 5 mM glucose + 10% dialyzed FBS; 48 h; 46.1 µM

compound | study_target | cell viability
CNC(=O)c1ccc2c(c1)NC(=O)/C2=C(\Nc1cccc(CN(C)C)c1)c1ccccc1 | P12-Ichikawa | 1.03%
CCCCCCNC(=O)N1\C=C(F)/C(=O)NC1=O | P12-Ichikawa | 81.8%
C=CC(=O)Nc1cc2c(Nc3ccc(F)c(Cl)c3)ncnc2cc1C#CC(C)(C)N1CCN(C)CC1 | P12-Ichikawa | 12.7%
CO[C@H]1CCC(O[C@H]2C[C@H]([C@]3(C)CC[C@]4(C[C@H](O)[C@@H](C)[C@@H]([C@@H](C)/C=C(\C)C(=O)[C@H](C)C[C@H](C)C(=O)[O-])O4)O3)O[C@]3(O[C@@H]([C@H]4O[C@@](O)(CO)[C@H](C)C[C@@H]4C)C[C@@H]3C)[C@@H]2C)O[C@@H]1C (some centres not stated) | P12-Ichikawa | 27.1%
COC1=CC=C(C=C1)/C2=C(O)/C(=O)C3=C(O)C=C(O)C(=C3O2)CC=C(C)C | P12-Ichikawa | 118%
CCNC(=O)Nc1ccc(Oc2ncnc(N)c2/C=N/OC)cc1Cl | P12-Ichikawa | 107%
CC(=O)OC[C@@H]1O[C@H]([C@H](OC(C)=O)[C@@H]1OC(C)=O)N2\C=C/C(=O)NC2=O | P12-Ichikawa | 92%
